# studyTarget: T1, mouse MAdCAM expressed on cells (mouse, UniProt Q61826 22-405)
# T1 construct: whole, on cells
# T1 sequence (looked up): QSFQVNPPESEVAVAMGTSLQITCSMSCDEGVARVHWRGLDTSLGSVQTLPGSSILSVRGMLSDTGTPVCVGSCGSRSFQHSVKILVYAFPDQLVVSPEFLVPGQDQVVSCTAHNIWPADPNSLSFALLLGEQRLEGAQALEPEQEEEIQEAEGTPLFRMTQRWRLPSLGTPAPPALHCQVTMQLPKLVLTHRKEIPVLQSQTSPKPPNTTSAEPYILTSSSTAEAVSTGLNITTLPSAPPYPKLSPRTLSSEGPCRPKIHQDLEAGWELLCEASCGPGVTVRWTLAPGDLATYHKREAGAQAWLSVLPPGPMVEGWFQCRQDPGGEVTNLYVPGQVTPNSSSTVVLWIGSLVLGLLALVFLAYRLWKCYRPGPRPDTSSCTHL
# experimentDescription: cell binding
measureName: binding result

Problem: Name the reported binding result value associated with the binder MAdCAM Antibody Table 2 Clone 24 (antibody, human IgG1, V domains shown) VH: EVQLVESGGGLVKPGGSLRLSCAASGFTFSSYWMSWVRQAPGKGLEWVSRISSDGRITTYAAPVKGRFTISRDDSKNTLYLQMNSLKTEDTAVYYCARGTSYCTGGVCDIDYWGQGTLVTVSS VL: DIQMTQSPSSLSASVGDRVTITCRASQSIGRNLNWYQQKPGKAPKLLIYSASNLQSGVPSRFSGSGSGTDFTLTISSLQPEDFATYYCQQSYSIPLTFGPGTKVDIK
Result: no binding

Problem: # query: binding result of entry MAdCAM Antibody Table 2 Clone 25 (antibody, human IgG1, V domains shown) VH: EVQLLESGGGLVQPGGSLRLSCAASGFTFSNAWMSWVRQAPGKGLEWVSTIVGNGGATYYADSVKGRFTISRDNSKNTLYLQMNSLRAEDTAVYYCARDNPLRWQGMDVWGQGTLVTVSS VL: DIQMTQSPSSLSASVGDRVTITCRASQDISNYLNWYQQKPGKAPKLLIYAASSLQSGVPSRFSGSGSGTDFTLTISSLQPEDFATYYCQQSYSIPPTFGPGTKVDIK
Result: no binding
